Test system: U2OS
Test: Incucyte cell viability with U2OS; note: filed as whole numbers so only -1 and 0 and 1 occur
Type: toxicity, cell-based
Conditions: human, 18 h, 10 µM, compound concentration 10 uM, replicate number 1, timepoint 18 hours
test-readout: Growth Rate
Write the number on its own, no unit after it.

Q: Any idea what Growth Rate was measured for `Cc1c[nH]c2nccc(Oc3c(F)cc(Nc4cc(Cl)nc(N)n4)cc3F)c12` ?
Result: 0

Q: Any idea what Growth Rate was measured for `O=C(Nc1ccc(Oc2ccc(F)cc2)cc1)N1CCc2ncccc2[C@H]1c1ccc(F)cc1` ?
Result: 1

Q: Any idea what Growth Rate was measured for `CCOC(=O)CCNc1cc(N2CCc3ccccc3CC2)nc(-c2cccnc2)n1` ?
Result: 1

Q: Any idea what Growth Rate was measured for `CN1CCN(Cc2ccc(Nc3ncc(Cl)c(Nc4ccccc4S(=O)(=O)N(C)C)n3)cc2)CC1` ?
Result: 0

Q: Any idea what Growth Rate was measured for Cc1ccc2c(c1)c1c(n2CCc2ccc(C)nc2)CCN(C)C1 [LATREPIRDINE] ?
Result: 0

Q: Any idea what Growth Rate was measured for `Cl.Clc1cccc(COc2cncc(N3CCNCC3)n2)c1` ?
Result: 1

Q: Any idea what Growth Rate was measured for `CC1CCN(CC[C@H]2CCCN2S(=O)(=O)c2cccc(O)c2)CC1.Cl` ?
Result: 1

Q: Any idea what Growth Rate was measured for `CNC(=O)Nc1ccc(-c2nc(N3CC4CCC(C3)O4)c3cnn(C4CCC5(CC4)OCCO5)c3n2)cc1` ?
Result: 0

Q: Any idea what Growth Rate was measured for `COc1cc2c(cc1NS(=O)(=O)c1ccc(Br)cc1C)n(C)c(=O)n2C` ?
Result: 1

Q: Any idea what Growth Rate was measured for `Cc1cc([C@@H](C)Nc2ccccc2C(=O)O)c2nc(N3CCOCC3)cc(=O)n2c1` ?
Result: 0

Q: Any idea what Growth Rate was measured for `Cc1cc(C)c(-n2ccn3nc(-c4cccnc4)cc23)cc1NC(=O)c1cc(C#N)cc(S(F)(F)(F)(F)F)c1` ?
Result: 0

Q: Any idea what Growth Rate was measured for `COc1ccc(S(=O)(=O)c2cc(OC)ccc2S(=O)(=O)c2ccc([C@H](C)NS(C)(=O)=O)cc2)cc1` ?
Result: 1

Q: Any idea what Growth Rate was measured for `CNCc1ccccc1-c1csc([C@@H](C)Nc2nc(C)nc3cc(OC)c(OC)cc23)c1` ?
Result: 0

Q: Any idea what Growth Rate was measured for CCc1nn(CCCN2CCN(c3cccc(Cl)c3)CC2)c(=O)n1CCOc1ccccc1.Cl [NEFAZODONE HYDROCHLORIDE] ?
Result: 1
